Entries and their pD2
- Species: Rattus norvegicus
- ASSAY_PROCEDURE: alpha-1/alpha-2-agonistic activity by measuring their potency in pithed rat based on noradrenaline
- Type: functional

COMPOUND | COMPARISON_SYMBOL | pD2
CCSc1ccc(OC)c2c1CC1OCCN(C)C1C2 (centres undefined) | = | 6.48
COc1ccc(SC)c2c1CC1C(C2)OC(C)CN1C (centres undefined) | < | 4
COc1ccc([N+](=O)[O-])c2c1CC1C(C2)OCCN1C (centres undefined) | = | 6
COc1ccc(SC)c2c1C[C@H]1[C@@H](C2)OCCN1C (stereo in doubt; 14) | = | 6.74

* * *

- SUBJECT_OF_TEST: Adrenergic receptor alpha-1 (Homo sapiens) (UniProt P35348+P25100+P35368)
- ASSAY_PROCEDURE: Alpha-1-adrenergic activity as efficacy in rabbit ear artery relative to noradrenaline
- Assay type: functional, tissue-based
- STATED_CONDITIONS: Oryctolagus cuniculus, target entry is the homologue from another species
Known E of a selection of compounds

COMPOUND | E
COc1ccc(SC)c2c1C[C@H]1[C@@H](C2)OCCN1C (stereo in doubt; 15) | 100
COc1ccc(Cl)c2c1CC1C(C2)OCCN1C (stereo unspecified) | 89
CCCN1CCOC2Cc3c(SC)ccc(OC)c3CC21 (stereo unspecified) | 98
COc1ccc(SC)c2c1CC1C(C2)OC(C)CN1C (stereo unspecified) | 67
COc1ccc([N+](=O)[O-])c2c1CC1C(C2)OCCN1C (stereo unspecified) | 85
CCN1CCOC2Cc3c(SC)ccc(OC)c3CC21 (stereo unspecified) | 98

* * *

- SUBJECT_OF_TEST: Adrenergic receptor alpha-1 (Homo sapiens) (UniProt P35348+P25100+P35368)
- ASSAY_PROCEDURE: Alpha-1-adrenergic activity as efficacy in rabbit ear artery relative to noradrenaline
- Type: functional, tissue-based
- STATED_CONDITIONS: Oryctolagus cuniculus, target entry is the homologue from another species

MOLECULE | E
COc1ccc(SC)c2c1C[C@@H](N)CC2 | 98
CCSc1ccc(OC)c2c1CC1OCCN(C)C1C2 (stereo unspecified) | 95
CCSc1ccc(OC)c2c1CC1CCCN(C)C1C2 (stereo in doubt; 31) | 97
CCC1CN(C)C2Cc3c(OC)ccc(SC)c3CC2O1 (stereo unspecified) | 42
CCN1CC(C)OC2Cc3c(SC)ccc(OC)c3CC21 (stereo unspecified) | 93
COc1ccc(SC)c2c1CC1C(CCCN1C)C2 (stereo in doubt; 33) | 109

* * *

- Species: Rattus norvegicus
- ASSAY_PROCEDURE: Change in blood pressure was reported in pithed rat
- Format: functional
Quick reference: Increase in blood pressure (P/R) of the listed items.

MOLECULE | UNIT_ABBREV | Increase in blood pressure (P/R)
COc1ccc([N+](=O)[O-])c2c1CC1C(C2)OCCN1C (stereo unspecified) | % | -22
COc1ccc(Cl)c2c1CC1C(C2)OCCN1C (stereo unspecified) | % | -5
COc1ccc(SC)c2c1C[C@@H](N)CC2 | % | -94
COc1ccc(SC)c2c1CC1C(CCCN1C)C2 (stereo in doubt; 33) | % | -87
CCCN1CCOC2Cc3c(SC)ccc(OC)c3CC21 (stereo unspecified) | % | -76
COc1ccc(SC)c2c1C[C@H]1[C@@H](C2)OCCN1C (stereo in doubt; 14) | % | -79
COc1ccc(SC)c2c1CC1C(CCCN1C)C2 (stereo in doubt; trans) | % | -79
CCC1CN(C)C2Cc3c(OC)ccc(SC)c3CC2O1 (stereo unspecified) | % | 0
CCN1CC(C)OC2Cc3c(SC)ccc(OC)c3CC21 (stereo unspecified) | % | -34
CCSc1ccc(OC)c2c1CC1CCCN(C)C1C2 (stereo in doubt; 31) | % | -93
COc1ccc(SC)c2c1C[C@H]1[C@@H](C2)OCCN1C (stereo in doubt; 15) | % | -40

* * *

Consider the following compounds and their measured pD2 readings.
- SUBJECT_OF_TEST: Adrenergic receptor alpha-1 (Homo sapiens) (UniProt P35348+P25100+P35368)
- ASSAY_PROCEDURE: alpha-1-adrenergic activity by measuring their potency in rabbit ear artery based on noradrenaline
- Format: functional, tissue-based
- STATED_CONDITIONS: Oryctolagus cuniculus, target entry is the homologue from another species

COMPOUND | SUBJECT_OF_TEST | pD2
CCSc1ccc(OC)c2c1CC1OCCN(C)C1C2 (centres undefined) | Adrenergic receptor alpha-1 (Homo sapiens) (UniProt P35348+P25100+P35368) | 8.2
COc1ccc(SC)c2c1C[C@H]1[C@@H](C2)OCCN1C (stereo in doubt; 14) | Adrenergic receptor alpha-1 (Homo sapiens) (UniProt P35348+P25100+P35368) | 7.5
COc1ccc([N+](=O)[O-])c2c1CC1C(C2)OCCN1C (centres undefined) | Adrenergic receptor alpha-1 (Homo sapiens) (UniProt P35348+P25100+P35368) | 5.45
COc1ccc(SC)c2c1CC1C(C2)OC(C)CN1C (centres undefined) | Adrenergic receptor alpha-1 (Homo sapiens) (UniProt P35348+P25100+P35368) | 5.83

* * *

Listing of recorded Increase in blood pressure (P/R) by entry.
- Organism: Rattus norvegicus
- ASSAY_PROCEDURE: Change in blood pressure was reported in pithed rat
- Format: functional

MOLECULE | UNIT_ABBREV | Increase in blood pressure (P/R)
CCSc1ccc(OC)c2c1CC1CCCN(C)C1C2 (stereo in doubt) | % | -25
CCN1CCOC2Cc3c(SC)ccc(OC)c3CC21 (stereo not drawn) | % | -84
CCSc1ccc(OC)c2c1CC1OCCN(C)C1C2 (stereo not drawn) | % | -80

* * *

- SUBJECT_OF_TEST: Adrenergic receptor alpha-1 (Homo sapiens) (UniProt P35348+P25100+P35368)
- ASSAY_PROCEDURE: Alpha-1-adrenergic activity as potency in rabbit ear artery compared to noradrenaline
- Format: functional, tissue-based
- STATED_CONDITIONS: Oryctolagus cuniculus, target entry is the homologue from another species
Kind request: treat 6 as inclusive, so pD2 at 6 or higher is 1 (yes), anything lower is 0 (no).

COMPOUND | DISCRETE_LABEL
CCC1CN(C)C2Cc3c(OC)ccc(SC)c3CC2O1 (stereo unspecified) | 0 (no)
COc1ccc(SC)c2c1C[C@H]1[C@@H](C2)OCCN1C (stereo in doubt; 15) | 0 (no)
COc1ccc(SC)c2c1C[C@@H](N)CC2 | 1 (yes)
COc1ccc(SC)c2c1CC1C(CCCN1C)C2 (stereo in doubt; 33) | 1 (yes)
CCN1CCOC2Cc3c(SC)ccc(OC)c3CC21 (stereo unspecified) | 1 (yes)
CCSc1ccc(OC)c2c1CC1CCCN(C)C1C2 (stereo in doubt) | 0 (no)
COc1ccc(SC)c2c1CC1C(CCCN1C)C2 (stereo in doubt; cis) | 0 (no)
CCCN1CCOC2Cc3c(SC)ccc(OC)c3CC21 (stereo unspecified) | 1 (yes)
CCSc1ccc(OC)c2c1CC1CCCN(C)C1C2 (stereo in doubt; 31) | 1 (yes)
CCN1CC(C)OC2Cc3c(SC)ccc(OC)c3CC21 (stereo unspecified) | 1 (yes)
